Assayed target: T-type calcium channel A1i (alpha-1I, CaV 3.3) (Homo sapiens)
Construct: expressed in transfected cells; host or cells: HEK 293 cells, tetracycline-inducible expression (Zeocin/Blasticidin selection)
Sequence (Q9P0X4 whole entry): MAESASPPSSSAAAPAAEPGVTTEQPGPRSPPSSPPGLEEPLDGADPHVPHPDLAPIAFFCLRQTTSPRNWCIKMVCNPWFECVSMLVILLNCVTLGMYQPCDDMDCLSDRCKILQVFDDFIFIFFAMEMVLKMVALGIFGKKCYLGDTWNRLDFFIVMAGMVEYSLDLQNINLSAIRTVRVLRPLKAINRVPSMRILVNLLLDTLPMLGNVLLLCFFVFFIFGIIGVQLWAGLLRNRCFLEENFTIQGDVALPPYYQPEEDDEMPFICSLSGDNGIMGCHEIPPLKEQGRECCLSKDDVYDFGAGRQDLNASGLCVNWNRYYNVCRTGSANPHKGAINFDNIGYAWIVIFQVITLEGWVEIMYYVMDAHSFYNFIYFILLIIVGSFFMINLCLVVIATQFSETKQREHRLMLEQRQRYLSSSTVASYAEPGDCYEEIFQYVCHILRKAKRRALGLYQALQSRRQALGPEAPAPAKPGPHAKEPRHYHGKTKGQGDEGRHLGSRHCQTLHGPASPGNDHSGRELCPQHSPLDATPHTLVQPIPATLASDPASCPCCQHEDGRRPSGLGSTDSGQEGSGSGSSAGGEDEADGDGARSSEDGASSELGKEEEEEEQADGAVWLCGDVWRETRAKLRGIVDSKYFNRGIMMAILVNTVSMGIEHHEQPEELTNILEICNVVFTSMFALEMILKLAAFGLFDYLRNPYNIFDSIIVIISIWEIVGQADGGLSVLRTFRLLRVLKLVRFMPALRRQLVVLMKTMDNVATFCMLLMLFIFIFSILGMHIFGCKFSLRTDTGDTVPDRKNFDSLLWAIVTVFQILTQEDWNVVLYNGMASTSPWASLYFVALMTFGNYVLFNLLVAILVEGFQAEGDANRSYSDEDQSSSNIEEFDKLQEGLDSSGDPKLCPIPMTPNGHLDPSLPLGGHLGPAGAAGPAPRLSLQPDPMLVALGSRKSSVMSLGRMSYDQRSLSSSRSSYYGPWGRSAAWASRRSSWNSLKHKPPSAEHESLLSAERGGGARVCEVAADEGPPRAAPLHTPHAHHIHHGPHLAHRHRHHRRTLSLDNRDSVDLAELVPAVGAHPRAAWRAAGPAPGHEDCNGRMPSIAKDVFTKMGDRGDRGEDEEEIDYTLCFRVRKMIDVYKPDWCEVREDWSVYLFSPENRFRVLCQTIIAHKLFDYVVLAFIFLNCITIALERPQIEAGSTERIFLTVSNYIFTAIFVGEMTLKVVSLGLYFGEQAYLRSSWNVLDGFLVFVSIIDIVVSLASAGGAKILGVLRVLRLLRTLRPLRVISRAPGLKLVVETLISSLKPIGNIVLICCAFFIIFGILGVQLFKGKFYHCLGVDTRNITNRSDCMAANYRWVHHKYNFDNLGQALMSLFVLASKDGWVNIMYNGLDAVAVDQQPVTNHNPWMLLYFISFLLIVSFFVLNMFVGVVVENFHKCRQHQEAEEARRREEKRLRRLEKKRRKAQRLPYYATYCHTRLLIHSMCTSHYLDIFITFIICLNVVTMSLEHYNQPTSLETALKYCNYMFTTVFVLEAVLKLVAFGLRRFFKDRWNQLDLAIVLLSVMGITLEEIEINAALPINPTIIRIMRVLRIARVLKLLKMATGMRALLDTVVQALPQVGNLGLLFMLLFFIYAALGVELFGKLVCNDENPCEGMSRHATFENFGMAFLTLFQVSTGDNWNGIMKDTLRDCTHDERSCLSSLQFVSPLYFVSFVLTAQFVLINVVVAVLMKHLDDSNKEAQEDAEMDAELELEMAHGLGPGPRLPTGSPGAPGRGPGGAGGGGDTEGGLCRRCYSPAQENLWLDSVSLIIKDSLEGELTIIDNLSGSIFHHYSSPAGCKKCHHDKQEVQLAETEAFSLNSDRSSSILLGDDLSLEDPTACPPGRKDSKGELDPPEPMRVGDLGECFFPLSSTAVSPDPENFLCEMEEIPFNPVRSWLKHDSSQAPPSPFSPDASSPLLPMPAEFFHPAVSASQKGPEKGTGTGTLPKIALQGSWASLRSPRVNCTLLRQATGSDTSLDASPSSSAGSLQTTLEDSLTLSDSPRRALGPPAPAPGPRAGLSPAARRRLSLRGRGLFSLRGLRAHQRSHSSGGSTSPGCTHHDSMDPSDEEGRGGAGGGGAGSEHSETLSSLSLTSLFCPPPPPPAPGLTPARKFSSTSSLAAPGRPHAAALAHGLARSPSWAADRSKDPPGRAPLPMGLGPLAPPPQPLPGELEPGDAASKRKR
Run description: FLIPR Ca2+ Flux Assay, hyperpolarized state
Assay type: cell-based
Conditions: measure of the ability to inhibit T-type calcium channel, read-out: Ali Hyperpolarized
Assay readout: IC50 (nM)

Example cases with answers are listed next.
{"columns": ["Record smiles", "IC50 [nM]"],
 "data": [
  ["Cc1cccc(C(=O)C2CCN(Cc3c[nH]c(-c4ccccc4)n3)CC2)c1", 313],
  ["O=C(c1ccc2nonc2c1)C1CCN(Cc2c[nH]c(-c3ccccc3)n2)CC1", 155],
  ["O=C(c1cccc(Cl)c1)C1CCN(Cc2c[nH]c(-c3ccccc3)n2)CC1", 129],
  ["O=C(c1ccc(F)c(F)c1)C1CCN(Cc2c[nH]c(-c3ccccc3)n2)CC1", 686],
  ["CCc1nc(C)c(CN2CCC(C(=O)c3cccc(C(F)(F)F)c3)CC2)[nH]1", 6900]
]}

1. O=C(c1cccc(C(F)(F)F)c1)C1CCN(Cc2cnc(-c3ccccc3)[nH]2)CC1
2. Cc1ccc(C(=O)C2CCN(Cc3c[nH]c(-c4ccccc4)n3)CC2)cc1
Min IC50? 1 | 2 Identify your selection by its label.
1
(1: 70 nM, 2: 644 nM)

I. O=C(c1ccc(F)cc1)C1CCN(Cc2c[nH]c(-c3ccccc3)n2)CC1
II. Cc1nc(CN2CCC(C(=O)c3cccc(C(F)(F)F)c3)CC2)c[nH]1
III. COc1ccc(C(=O)C2CCN(Cc3c[nH]c(-c4ccccc4)n3)CC2)cc1
# rank by IC50, ascending (min first) In plain terms: list the labels in the order you were asked to.
I, III, II
